assay: Visual assessment score (clarity of gel in 1 cm cuvette); type: physicochemical; conditions: 60:40 hydrogenated polydecene:DC245 gelled with 9% REF2 and 1% of the specified cellobiose ester
Measure name: Clarity Visual (appearance)

Known results for compounds:
CCCCCCCCC(=O)OCC1OC(OC2C(COC(=O)CCCCCCCC)OC(OC(=O)c3ccccc3)C(OC(=O)CCCCCCCC)C2OC(=O)CCCCCCCC)C(OC(=O)CCCCCCCC)C(OC(=O)CCCCCCCC)C1OC(=O)CCCCCCCC (mixture of isomers) [Ex 1.2] | transparent/
CCCCCCCCC(=O)OCC1OC(OC2C(COC(=O)CCCCCCCC)OC(OC(=O)CCCCCCCC)C(OC(=O)CCCCCCCC)C2OC(=O)CCCCCCCC)C(OC(=O)CCCCCCCC)C(OC(=O)CCCCCCCC)C1OC(=O)CCCCCCCC (mixture of isomers) [REF 3, reference compound] | transparent/
CCCCCCCCC(=O)OCC1OC(O)C(OC(=O)CCCCCCCC)C(OC(=O)CCCCCCCC)C1OC1OC(COC(=O)CCCCCCCC)C(OC(=O)CCCCCCCC)C(OC(=O)CCCCCCCC)C1OC(=O)CCCCCCCC (mixture of isomers) [REF 5, reference compound] | transparent/
CCCCCCCCC(=O)OCC1OC(OC2C(COC(=O)CCCCCCCC)OC(OC(C)=O)C(OC(=O)CCCCCCCC)C2OC(=O)CCCCCCCC)C(OC(=O)CCCCCCCC)C(OC(=O)CCCCCCCC)C1OC(=O)CCCCCCCC (mixture of isomers) [Ex 1.6] | transparent
CCCCCCCCC(=O)OCC1OC(OC2C(COC(=O)CCCCCCCC)OC(OC(=O)c3ccc4ccccc4c3)C(OC(=O)CCCCCCCC)C2OC(=O)CCCCCCCC)C(OC(=O)CCCCCCCC)C(OC(=O)CCCCCCCC)C1OC(=O)CCCCCCCC (mixture of isomers) [Ex 1.4] | transparent/
CCCCCCCCC(=O)OCC1OC(OC2C(COC(=O)CCCCCCCC)OC(OC(C)=O)C(OC(=O)CCCCCCCC)C2OC(=O)CCCCCCCC)C(OC(=O)CCCCCCCC)C(OC(=O)CCCCCCCC)C1OC(=O)CCCCCCCC (mixture of isomers) [Ex 1.7] | transparent

Would you kindly share the measured Clarity Visual (appearance) for CCCCCCCCCCCCCCCC(=O)OC1OC(COC(=O)CCCCCCCC)C(OC2OC(COC(=O)CCCCCCCC)C(OC(=O)CCCCCCCC)C(OC(=O)CCCCCCCC)C2OC(=O)CCCCCCCC)C(OC(=O)CCCCCCCC)C1OC(=O)CCCCCCCC (mixture of isomers) ?
transparent

Next up: CCCCCCCCC(=O)OCC1OC(OC2C(COC(=O)CCCCCCCC)OC(OC(=O)c3ccccc3)C(OC(=O)CCCCCCCC)C2OC(=O)CCCCCCCC)C(OC(=O)CCCCCCCC)C(OC(=O)CCCCCCCC)C1OC(=O)CCCCCCCC (mixture of isomers) [Ex 1.1]
transparent/
